Counter-ions that a name gives are not always drawn.
Assay read-out Compound Myofibroblast Cytotoxicity Activity; system under study: hDMFa myofibroblast cells.
QUANTITY_NAME: Compound Myofibroblast Cytotoxicity Activity

                                   compound  recorded_result
0  O=c1ccn([C@H]2C[C@H](O)[C@@H](CO)O2)c(=O)[nH]1 [Cmpd 47, 2-Deoxyuridine]               ++
1  CN[C@H]1CC[C@@H](c2ccc(Cl)c(Cl)c2)c2ccccc21 [Cmpd 861, Sertraline HCl]             ++++
2  CC(C)(C)NCC(O)c1cc(Cl)c(N)c(Cl)c1 (stereo not shown) [Cmpd 278, Clenbuterol (hydrochloride)]               ++
3  N=C(N/N=C/c1ccc(Cl)cc1)N/N=C/c1ccc(Cl)cc1 [Cmpd 838, Robenidine hydrochloride]               ++

---

Assay read-out Compound Myofibroblast Cytotoxicity Activity; system under study: hDMFa myofibroblast cells.

Consider the following illustrative entries.
COMPOUND	TARGET_UNDER_TEST	RECORDED_RESULT
OC[C@H]1O[C@H](O[C@H]2[C@H](O)[C@@H](O)[C@@H](O[C@H]3[C@H](O)[C@@H](O)C(O)O[C@@H]3CO)O[C@@H]2CO)[C@H](O)[C@@H](O)[C@@H]1O (mixture of isomers)	hDMFa myofibroblast cells	+++
Nc1ccn([C@H]2CC[C@@H](CO)O2)c(=O)n1	hDMFa myofibroblast cells	++++
CS(C)(=O)=O	hDMFa myofibroblast cells	+
Cc1nc(Nc2ncc(C(=O)Nc3c(C)cccc3Cl)s2)cc(N2CCN(CCO)CC2)n1 [Cmpd 326, Dasatinib (BMS-354825)]	hDMFa myofibroblast cells	+++
CC(C)=C1C/C=C(\C)CC/C=C(\C)CC1=O	hDMFa myofibroblast cells	+++++

Using the record for O=[N+]([O-])O[C@@H]1CO[C@H]2[C@@H]1OC[C@@H]2O [Cmpd 540, Isosorbide 5-mononitrate] , report its Compound Myofibroblast Cytotoxicity Activity. ++

Using the record for C=CCCCCCCCCC(=O)O , report its Compound Myofibroblast Cytotoxicity Activity. ++

---

# System: hDMFa myofibroblast cells
# RUN_DESCRIPTION: Myofibroblast cytotoxicity, MTS cell viability assay
# CONDITION_DESCRIPTION: serum-free media with inhibitor 8-12 hours, MTS cell viability, inhibition normalized as percentage of negative control
QUANTITY_NAME: Compound Myofibroblast Cytotoxicity Activity

MOLECULE	RECORDED_RESULT
C[C@H]1[C@H](C)CC[C@]2(C(=O)O)CC[C@]3(C)C(=CC[C@@H]4[C@@]5(C)C[C@@H](O)[C@H](O)[C@@](C)(CO)[C@@H]5CC[C@]43C)[C@H]12 [Cmpd 135, Asiatic acid]	+++++
COc1ccc2c(c[n+](C)c3c4cc5c(cc4ccc23)OCO5)c1OC.[Cl-] [Cmpd 244, Chelerythrine Chloride]	+++++
OCCCCCCCCO [Cmpd 38, 1,8-Octanediol]	+
CC1=C(C(=O)OC(C)C)C(c2cccc([N+](=O)[O-])c2)C(C(=O)OC2CN(C(c3ccccc3)c3ccccc3)C2)=C(N)N1 (stereo not shown) [Cmpd 148, Azelnidipine]	+++++

---

Assay read-out Compound Myofibroblast Cytotoxicity Activity; system under study: hDMFa myofibroblast cells.
Structures can show the parent of a compound that is named as a salt.

Consider the following illustrative entries.
COMPOUND	RECORDED_RESULT
CC(C)NCC(O)c1ccc(NS(C)(=O)=O)cc1 (stereo not shown) [Cmpd 883, Sotalol hydrochloride]	+++
C[C@H]1[C@H](C)CC[C@]2(C(=O)O)CC[C@]3(C)C(=CC[C@@H]4[C@@]5(C)C[C@@H](O)[C@H](O)[C@@](C)(CO)[C@@H]5[C@H](O)C[C@]43C)[C@H]12	+++++
CCN(CCCCOC(=O)c1ccc(OC)c(OC)c1)C(C)Cc1ccc(OC)cc1.Cl (stereo not shown) [Cmpd 638, Mebeverine Hydrochloride]	++
Oc1ccc(O)cc1 [Cmpd 509, Hydroquinone]	++
CCCCC/C=C\C/C=C\CCCCCCCC(=O)O	+++

Request - read-out Compound Myofibroblast Cytotoxicity Activity | tested on hDMFa myofibroblast cells | compound CN1CCC(COc2cnc(-c3cccc(Cn4nc(-c5cccc(C#N)c5)ccc4=O)c3)nc2)CC1 ++++

Request - read-out Compound Myofibroblast Cytotoxicity Activity | tested on hDMFa myofibroblast cells | compound Cc1cncc(CN2CCC(=C3c4ccc(Cl)cc4CCc4cccnc43)CC2)c1.O=C(O)/C=C/C(=O)O [Cmpd 844, Rupatadine Fumarate] +++

---

# Test system: hDMFa myofibroblast cells
Counter-ions that a name gives are not always drawn.
QUANTITY_NAME: Compound Myofibroblast Cytotoxicity Activity

Consider the following illustrative entries.
COMPOUND	RECORDED_RESULT
NCCCNCCCCNCCCN	++
C=C1CC[C@@H]2[C@](C)(CO)[C@H](O)CC[C@@]2(C)[C@@H]1/C=C/C1=CCOC1=O [Cmpd 334, Dehydroandrographolide]	++
C[Si]1(C)O[Si](C)(C)O[Si](C)(C)O1	+
CC[C@]1(O)C[C@H]2CN(CCc3c([nH]c4ccccc34)[C@@](C(=O)OC)(c3cc4c(cc3OC)N(C=O)[C@H]3[C@@](O)(C(=O)OC)[C@H](OC(C)=O)[C@]5(CC)C=CCN6CC[C@]43[C@@H]65)C2)C1 [Cmpd 1004, Vincristine sulfate]	+++
O=P(O)(O)C(Cl)(Cl)P(=O)(O)O [Cmpd 282, Clodronate (sodium salt hydrate)]	+++
COc1cc(C(=O)O)ccc1O	++

Now turn to the next compound.
Request - read-out Compound Myofibroblast Cytotoxicity Activity | tested on hDMFa myofibroblast cells | compound COc1ccc(Cc2cnc(N)nc2N)cc1OC ++

---

Structures can show the parent of a compound that is named as a salt.
Assay read-out Compound Myofibroblast Cytotoxicity Activity; system under study: hDMFa myofibroblast cells.

COMPOUND	RECORDED_RESULT
CCCCCCCCCCCCCCCC(=O)OC/C=C(C)/C=C/C=C(C)/C=C/C1=C(C)CCCC1(C)C [Cmpd 830, Retinyl (Vitamin A) Palmitate]	++
C=C(C)[C@@H]1CC[C@@]2(C)[C@H]1[C@H]1CCC3[C@@]4(C)CC[C@H](O)C(C)(C)[C@@H]4CC[C@@]3(C)[C@]1(C)C[C@@H]2O (stereo partly shown)	+
C[C@H](C(=O)O)c1ccc(-c2ccccc2)c(F)c1 [Cmpd 30, (S)-Flurbiprofen]	++++
O=Cc1ccc(CO)o1	++

Using the record for CC/C(=C(\c1ccccc1)c1ccc(OCCN(C)C)cc1)c1ccccc1 [Cmpd 911, Tamoxifen Citrate] , report its Compound Myofibroblast Cytotoxicity Activity. +++

Using the record for COc1ccc(CC2c3cc(OC)c(OC)cc3CC[N+]2(C)CCC(=O)OCCCCCOC(=O)CC[N+]2(C)CCc3cc(OC)c(OC)cc3C2Cc2ccc(OC)c(OC)c2)cc1OC (stereo not shown) [Cmpd 142, Atracurium Besylate] , report its Compound Myofibroblast Cytotoxicity Activity. +++

Using the record for CSCC[C@H](N)C(=O)O [Cmpd 657, Methionine] , report its Compound Myofibroblast Cytotoxicity Activity. ++

---

Assay read-out Compound Myofibroblast Cytotoxicity Activity; system under study: hDMFa myofibroblast cells.

Consider the following illustrative entries.
COMPOUND	RECORDED_RESULT
CC(C)/N=c1\cc2n(-c3ccc(Cl)cc3)c3ccccc3nc-2cc1Nc1ccc(Cl)cc1	++
CC(=O)O[C@]1(C(C)=O)CC[C@H]2[C@@H]3C[C@H](C)C4=CC(=O)CC[C@]4(C)[C@H]3CC[C@@]21C [Cmpd 643, Medroxyprogesterone acetate]	++
Nc1ncn([C@@H]2O[C@H](CO)[C@@H](O)[C@H]2O)c(=O)n1	+++
Cc1nc(Nc2ncc(C(=O)Nc3c(C)cccc3Cl)s2)cc(N2CCN(CCO)CC2)n1.O [Cmpd 328, Dasatinib Monohydrate]	+++
CC1=CCC2CC1C2(C)C (racemic) [Cmpd 18, (±)-α-Pinene]	++
CC(=O)O[C@H]1CC[C@@]2(C)C(=CC[C@@H]3[C@@H]2CC[C@]2(C)C(c4cccnc4)=CC[C@@H]32)C1 [Cmpd 75, Abiraterone acetate]	+++

Using the record for CC[C@@H]1/C=C(\C)C[C@H](C)C[C@H](OC)[C@H]2O[C@@](O)(C(=O)C(=O)N3CCCC[C@H]3C(=O)O[C@H](/C(C)=C/[C@@H]3CC[C@@H](O)[C@H](OC)C3)[C@H](C)[C@@H](O)CC1=O)[C@H](C)C[C@@H]2OC , report its Compound Myofibroblast Cytotoxicity Activity. +++

Using the record for COc1ccc2c(c1)C(=O)N(CCc1ccc(S(=O)(=O)NC(=O)NC3CCCCC3)cc1)C(=O)C2(C)C , report its Compound Myofibroblast Cytotoxicity Activity. ++

Using the record for COc1ccc([C@@H]2CC(=O)c3c(O)cc(O)cc3O2)cc1O , report its Compound Myofibroblast Cytotoxicity Activity. ++

Using the record for CC1=C(C(=O)O)N2C(=O)[C@@H](NC(=O)[C@H](N)c3ccc(O)cc3)[C@H]2SC1 [Cmpd 227, Cefadroxil (hydrate)] , report its Compound Myofibroblast Cytotoxicity Activity. ++

Using the record for Nc1ccc(S(=O)(=O)NC(=O)c2ccccc2)cc1 [Cmpd 893, Sulfabenzamide] , report its Compound Myofibroblast Cytotoxicity Activity. ++

Using the record for C[C@H]1[C@H](OC(=O)CCC(=O)O)O[C@@H]2O[C@@]3(C)CC[C@H]4[C@H](C)CC[C@@H]1[C@@]24OO3 [Cmpd 132, Artesunate] , report its Compound Myofibroblast Cytotoxicity Activity. +++

Using the record for Cc1coc2c1C(=O)C(=O)c1c-2ccc2c1CCCC2(C)C , report its Compound Myofibroblast Cytotoxicity Activity. +++++

Using the record for Cl.Cl.Fc1ccc(C(c2ccc(F)cc2)N2CCN(C/C=C/c3ccccc3)CC2)cc1 [Cmpd 460, Flunarizine 2HCl] , report its Compound Myofibroblast Cytotoxicity Activity. ++

Using the record for C=C(C)[C@H]1CC=C(C)C(=O)C1 [Cmpd 28, (S)-(+)-Carvone] , report its Compound Myofibroblast Cytotoxicity Activity. ++

Using the record for CNC1(C)C2CCC(C2)C1(C)C.Cl (stereo not drawn) [Cmpd 639, Mecamylamine hydrochloride] , report its Compound Myofibroblast Cytotoxicity Activity. ++++

Using the record for O=C(O)Cc1ccccc1Nc1c(Cl)cccc1Cl , report its Compound Myofibroblast Cytotoxicity Activity. ++

Using the record for N=c1nc(N2CCCCC2)cc(N)n1OS(=O)(=O)O [Cmpd 678, Minoxidil sulphate] , report its Compound Myofibroblast Cytotoxicity Activity. ++

Using the record for Cc1c(OCC(F)(F)F)ccnc1C[S@@+]([O-])c1nc2ccccc2[nH]1 , report its Compound Myofibroblast Cytotoxicity Activity. ++
